All figures here come from paper PMC5983452.

tested on: panel of 240 cancer cell lines; assay: Proliferation in a broad panel of 240 cancer cell lines, 2D culture (Eurofins Panlabs Oncopanel); type: cell-based; conditions: HLE, Liver; read-out: IC50
pIC50: −log10 of the molar value.
Measured metric: pIC50

## Input Requested read-out: pIC50. Entry: NC1CCC(S(=O)(=O)N2C3CCC2CC(NC(=O)c2cc(C4CC4)on2)C3)CC1 (stereo not shown)
## Output < 4.60

* * *

assay: Rat pharmacokinetic study; assay type: in vivo, male Sprague Dawley rats; settings: urine and plasma, male Sprague Dawley, IV 1 mg/kg
Measured metric: CL renal (L/h/kg)
One number for each entry, in L/h/kg.

## Input Give the measured CL renal of NC1CCC(S(=O)(=O)N2C3CCC2CC(NC(=O)c2cc(C4CC4)on2)C3)CC1 (stereo not shown) [EPZ028862] .
## Output 1.26

* * *

test: Dog pharmacokinetic study; format: in vivo, male beagle dogs; settings: plasma, male Beagle, IV 1 mg/kg, PO 5 mg/kg
Measured metric: bioavailability (%)
Numbers only, in %.

## Input Name the recorded bioavailability for NC1CCC(S(=O)(=O)N2C3CCC2CC(NC(=O)c2cc(C4CC4)on2)C3)CC1 (stereo not shown) [EPZ028862] .
## Output 70

* * *

tested on: panel of 240 cancer cell lines; experiment: Proliferation in a broad panel of 240 cancer cell lines, 2D culture (Eurofins Panlabs Oncopanel); format: cell-based; details: Homo sapiens, RPMI-8226, RPMI 8226, Haematopoietic and lymphoid; read-out: IC50
Measured metric: IC50

## Input Recorded IC50 for NC1CCC(S(=O)(=O)N2C3CCC2CC(NC(=O)c2cc(C4CC4)on2)C3)CC1 (stereo not shown) , please?
## Output > 25 µM

* * *

Test system: panel of 240 cancer cell lines
Assay: Proliferation in a broad panel of 240 cancer cell lines, 2D culture (Eurofins Panlabs Oncopanel)
Type: cell-based
Conditions: Homo sapiens, WiDr, Colon/GI; read-out: IC50
Procedure: Cell lines used in these experiments were obtained from the following sources and were cultured according to conditions specified by the respective cell banks. […] The cell lines listed above were tested for mycoplasma and were negative. Cells were authenticated by STR method or vendor protocols. All 313 cell lines in the CRIPSR pooled screen were purchased from commercial vendors and were STR authenticated and mycoplasma negative. […]
Measured metric: IC50

## Input # IC50 lookup, item NC1CCC(S(=O)(=O)N2C3CCC2CC(NC(=O)c2cc(C4CC4)on2)C3)CC1 (stereo not shown) [EPZ028862]
## Output > 25 µM

* * *

test: Dog pharmacokinetic study; assay type: in vivo, male beagle dogs; conditions: urine and plasma, male Beagle, IV 1 mg/kg
Measured metric: CL renal (mL/min/kg)
One number for each entry, in mL/min/kg.

## Input So what's the measured CL renal for this one? NC1CCC(S(=O)(=O)N2C3CCC2CC(NC(=O)c2cc(C4CC4)on2)C3)CC1 (stereo not shown)
## Output 1.97

* * *

test system: panel of 240 cancer cell lines; experiment: Proliferation in a broad panel of 240 cancer cell lines, 2D culture (Eurofins Panlabs Oncopanel); assay type: cell-based; conditions: Homo sapiens, COLO-320-HSR, Colo 320 HSR, Colon/GI; read-out: IC50
pIC50: −log10 of the molar value.
Measured metric: pIC50

## Input Lab request: please report pIC50 under test system panel of 240 cancer cell lines for NC1CCC(S(=O)(=O)N2C3CCC2CC(NC(=O)c2cc(C4CC4)on2)C3)CC1 (stereo not shown)
## Output < 4.60

* * *

tested on: panel of 240 cancer cell lines; test: Proliferation in a broad panel of 240 cancer cell lines, 2D culture (Eurofins Panlabs Oncopanel); format: cell-based; settings: Homo sapiens, A-427, A427, Lung; read-out: IC50
Measured metric: IC50

## Input Give its IC50 value. Item: NC1CCC(S(=O)(=O)N2C3CCC2CC(NC(=O)c2cc(C4CC4)on2)C3)CC1 (stereo not shown) [EPZ028862]
## Output > 25 µM

* * *

tested on: panel of 240 cancer cell lines; assay: Proliferation in a broad panel of 240 cancer cell lines, 2D culture (Eurofins Panlabs Oncopanel); format: cell-based; conditions: Homo sapiens, NCI-H441, NCIH441, Lung; read-out: IC50
pIC50: −log10 of the molar value.
Measured metric: pIC50

## Input Which pIC50 value belongs to NC1CCC(S(=O)(=O)N2C3CCC2CC(NC(=O)c2cc(C4CC4)on2)C3)CC1 (stereo not shown) ?
## Output < 4.60

* * *

system: panel of 240 cancer cell lines; assay: Proliferation in a broad panel of 240 cancer cell lines, 2D culture (Eurofins Panlabs Oncopanel); format: cell-based; details: SH-4, Skin; read-out: IC50
pIC50: −log10 of the molar value.
Measured metric: pIC50

## Input Would you kindly share the measured pIC50 for NC1CCC(S(=O)(=O)N2C3CCC2CC(NC(=O)c2cc(C4CC4)on2)C3)CC1 (stereo not shown) ?
## Output < 4.60

* * *

Assay: Monkey (NHP) pharmacokinetic study
Assay type: in vivo, male cynomolgus monkeys
Settings: cynomolgus monkey, plasma, male Cynomolgus, IV 1 mg/kg, PO 5 mg/kg
Method: 2. […] Food was returned 4 hours after dosing. […] 4. […] Food was returned 4 hours after dosing. […] Supplemental Results:SMYD2 compound characterization […] The […] nM (Figure S8A).
Measured metric: MRT (h)
Answers are plain numbers, in h.

## Input Can you look up the measured MRT of NC1CCC(S(=O)(=O)N2C3CCC2CC(NC(=O)c2cc(C4CC4)on2)C3)CC1 (stereo not shown) [EPZ028862] for me?
## Output 7.4

* * *

assay: in vitro; assay type: in vitro ADME; conditions: rat, plasma, pH 7.4, Rat fu (unbound fraction)
Measured metric: fraction unbound at 16 h, 1 µM

## Input fraction unbound at 16 h, 1 µM for NC1CCC(S(=O)(=O)N2C3CCC2CC(NC(=O)c2cc(C4CC4)on2)C3)CC1 (stereo not shown) [EPZ028862] ?
## Output 0.64

* * *

system: panel of 240 cancer cell lines; experiment: Proliferation in a broad panel of 240 cancer cell lines, 2D culture (Eurofins Panlabs Oncopanel); type: cell-based; settings: Y79, Eye-retinoblastoma; read-out: IC50
Measured metric: IC50

## Input What value of IC50 on panel of 240 cancer cell lines does NC1CCC(S(=O)(=O)N2C3CCC2CC(NC(=O)c2cc(C4CC4)on2)C3)CC1 (stereo not shown) have?
## Output > 25 µM

* * *

assay: in vitro; format: in vitro ADME, cyno-monkeys; details: male, monkey, microsomes, pH 7.4
Measured metric: microsomal CLint at 1 µM (µL/min/mg)
Answers are plain numbers, in µL/min/mg.

## Input Any idea what microsomal CLint at 1 µM was measured for NC1CCC(S(=O)(=O)N2C3CCC2CC(NC(=O)c2cc(C4CC4)on2)C3)CC1 (stereo not shown) ?
## Output 3.2

* * *

tested on: panel of 240 cancer cell lines; assay: Proliferation in a broad panel of 240 cancer cell lines, 2D culture (Eurofins Panlabs Oncopanel); type: cell-based; conditions: SR, Haematopoietic and lymphoid; read-out: IC50
pIC50: −log10 of the molar value.
Measured metric: pIC50

## Input Requested read-out: pIC50. Entry: NC1CCC(S(=O)(=O)N2C3CCC2CC(NC(=O)c2cc(C4CC4)on2)C3)CC1 (stereo not shown)
## Output < 4.60

* * *

test: Mouse pharmacokinetic study; details: male, CD-1, mouse, plasma, iv, 1 mg/kg
Measured metric: clearance (mL/min/kg)
One number for each entry, in mL/min/kg.

## Input Please report the recorded clearance for NC1CCC(S(=O)(=O)N2C3CCC2CC(NC(=O)c2cc(C4CC4)on2)C3)CC1 (stereo not shown) .
## Output 79.8

* * *

Test: Monkey (NHP) pharmacokinetic study
Type: in vivo, male cynomolgus monkeys
Conditions: cynomolgus monkey, plasma, male Cynomolgus, IV 1 mg/kg, PO 5 mg/kg
Procedure: 2. […] Food was returned 4 hours after dosing. […] 4. […] Food was returned 4 hours after dosing. […] Supplemental Results:SMYD2 compound characterization […] The […] nM (Figure S8A).
Measured metric: bioavailability

## Input Give the measured bioavailability of NC1CCC(S(=O)(=O)N2C3CCC2CC(NC(=O)c2cc(C4CC4)on2)C3)CC1 (stereo not shown) [EPZ028862] .
## Output 62%

* * *

tested on: panel of 240 cancer cell lines; experiment: Proliferation in a broad panel of 240 cancer cell lines, 2D culture (Eurofins Panlabs Oncopanel); assay type: cell-based; details: EM-2, Haematopoietic and lymphoid; read-out: IC50
Measured metric: IC50

## Input Which IC50 reading was recorded for the compound NC1CCC(S(=O)(=O)N2C3CCC2CC(NC(=O)c2cc(C4CC4)on2)C3)CC1 (stereo not shown) ?
## Output > 25 µM

* * *

system: panel of 240 cancer cell lines; test: Proliferation in a broad panel of 240 cancer cell lines, 2D culture (Eurofins Panlabs Oncopanel); format: cell-based; details: H4, CNS; read-out: IC50
Measured metric: IC50

## Input Recorded IC50 for NC1CCC(S(=O)(=O)N2C3CCC2CC(NC(=O)c2cc(C4CC4)on2)C3)CC1 (stereo not shown) , please?
## Output > 25 µM
